Catalogue of inhibition at 100 µM readings, one per entry.
- Study Target: CYP3A4 (Homo sapiens, UniProt P08684)
- Sequence (P08684 whole entry, canonical isoform): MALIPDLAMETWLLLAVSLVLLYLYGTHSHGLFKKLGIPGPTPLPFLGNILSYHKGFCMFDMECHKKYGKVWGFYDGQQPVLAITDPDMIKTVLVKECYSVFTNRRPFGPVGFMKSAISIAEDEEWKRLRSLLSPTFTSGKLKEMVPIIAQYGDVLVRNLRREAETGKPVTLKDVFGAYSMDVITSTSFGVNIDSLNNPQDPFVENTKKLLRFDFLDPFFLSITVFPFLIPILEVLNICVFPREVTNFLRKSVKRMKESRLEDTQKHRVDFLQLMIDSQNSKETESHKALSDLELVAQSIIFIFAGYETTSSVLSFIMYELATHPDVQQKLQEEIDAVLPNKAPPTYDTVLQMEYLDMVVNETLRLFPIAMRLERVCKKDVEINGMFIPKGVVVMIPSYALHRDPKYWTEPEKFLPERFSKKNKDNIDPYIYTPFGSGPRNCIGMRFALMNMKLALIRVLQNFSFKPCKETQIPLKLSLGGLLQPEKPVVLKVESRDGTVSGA
- Test Name: Interaction with human cytochrome P450 isoform 3A4 expressed in baculovirus-insect cells at 100 uM
- Type: ADME
Quantity Measured: inhibition at 100 µM

CC(C(=O)NS(C)(=O)=O)c1ccc(-c2ccc(C(F)(F)F)cc2)c(F)c1 (stereo not drawn) = > 50%
CC(c1ccc(-c2ccc(C(F)(F)F)cc2)c(F)c1)c1noc(O)n1 (stereo not drawn) = > 50%
CC(c1ccc(-c2ccc(C(F)(F)F)cc2)c(F)c1)c1nnn[nH]1 (stereo not drawn) = > 50%

* * *

- Test Name: Elimination phase half-life after administration to rats at a dose of 1.5 mg/kg intravenously
- Format: ADME, organism-based
- Parameters: dose 1.5 mg/kg, route intravenous
- Assay Conditions: rat, in vivo, iv
Quantity Measured: half-life (h)

CC(C(=O)O)c1ccc(-c2ccccc2)c(F)c1 (stereo unspecified) [FLURBIPROFEN] = 5.1

* * *

- Test Name: Concentration ratio in cerebrospinal fluid and plasma
- Assay Conditions: rat
Quantity Measured: Ratio

CC(C(=O)O)c1ccc(-c2ccc(C3CCCCC3)cc2)c(F)c1 (stereo unspecified) = 1.5%
CC(c1ccc(-c2ccc(C(F)(F)F)cc2)c(F)c1)c1noc(O)n1 (stereo unspecified) = 2.1%
CC(C(=O)O)c1ccc(-c2ccc(-c3ccc(O)cc3)cc2)c(F)c1 (stereo unspecified) = 1.1%
O=C(O)C1(c2ccc(-c3csc4ccccc34)c(F)c2)CC1 = 2.6%
CC(C(N)=O)c1ccc(-c2cc(Cl)cc(Cl)c2)c(F)c1 (stereo unspecified) = 19%
O=C(O)C1(c2ccc(-c3ccc(C(F)(F)F)cc3)c(F)c2)CC1 = 1.8%

* * *

Catalogue of Ratio readings, one per entry.
- Test Name: Concentration ratio in cerebrospinal fluid and plasma
- Assay Conditions: rat
Quantity Measured: Ratio (%)

CC(C(=O)NS(C)(=O)=O)c1ccc(-c2ccc(C(F)(F)F)cc2)c(F)c1 (stereo not given) = 1.7
O=C(O)C1(c2ccc(-c3ccc(-c4ccc(F)cc4)c(F)c3)c(F)c2)CC1 = 1.8
O=C(O)C1(c2ccc(-c3ccc(OC4CCOCC4)cc3)c(F)c2)CC1 = 1.1
O=C(O)C1(c2ccc(-c3ccccc3)c(F)c2)CC1 = 2.3

* * *

- Test Name: Maximum time corresponding to maximum concentration after administration to rats at a dose of 0.5 mg/kg intravenously
- Format: ADME, organism-based
- Parameters: dose 0.5 mg/kg, route intravenous
- Assay Conditions: rat, in vivo, iv
Quantity Measured: Tmax

O=C(O)C1(c2ccc(-c3ccc(C(F)(F)F)cc3)c(F)c2)CC1 = 4.8 min

* * *

- Test Name: Time to achieve maximal concentration in rats after 0.5 mg/kg oral dose
- Format: ADME, organism-based
- Design: dose 0.5 mg/kg, route oral
- Assay Conditions: rat, in vivo
Quantity Measured: Tmax (h)

O=C(O)C1(c2ccc(-c3ccc(OC4CCC(C(F)(F)F)CC4)cc3)c(F)c2)CC1 (stereo unspecified) = 8

* * *

- Test Name: In vivo steady state metabolic clearance of the compound
- Assay Conditions: rat
Catalogue of Clearance readings, one per entry.
Quantity Measured: Clearance (mL/h)

CC1(C)CC(Oc2ccc(-c3ccc(C4(C(=O)O)CC4)cc3F)cc2)CC(C)(C)C1 = 134
CC(C(=O)O)c1ccc(-c2ccc(C3CCCCC3)cc2)c(F)c1 (configuration not stated) = 174
CC(C(=O)O)c1ccc(-c2ccc(-c3ccc(O)cc3)cc2)c(F)c1 (configuration not stated) = 85
O=C(O)C1(c2ccc(-c3ccc(Cl)c(Cl)c3)c(F)c2)CC1 = 1.5
O=C(O)C1(c2ccc(-c3ccc(-c4ccc(O)cc4)c(F)c3)c(F)c2)CC1 = 109
O=C(O)C1(c2ccc(-c3ccccc3)c(F)c2)CC1 = 9.8
CC(C(N)=O)c1ccc(-c2cc(Cl)cc(Cl)c2)c(F)c1 (configuration not stated) = 193
